Reference source for all entries: ChEMBL document CHEMBL4017509

assayTarget: Bile acid receptor (Homo sapiens) (UniProt Q96RI1)
test: Transactivation of human FXR expressed in human HeLa cells co-expressing BSEP at 50 uM after 24 hrs by dual-glo luciferase reporter gene assay relative to GW4064
Assay type: cell-based
The source made the active and inactive calls. The rule behind the calls is not given here.
valueType: Emax

The cases that follow already have their Emax on record.
Query string: Supply Emax value. Item: CC(C)Oc1ccc(CNC(=O)c2ccc(C(C)(C)C)cc2)cc1
Result string: 26%

Query string: Supply Emax value. Item: Cc1cccc(C(=O)NCc2ccc(C(=O)O)cc2)c1
Result string: inactive

Query string: Supply Emax value. Item: CC(C)(C)c1ccc(C(=O)NCc2ccc(SC(F)(F)F)cc2)cc1
Result string: 19%

Query string: Supply Emax value. Item: C[S+]([O-])c1ccc(CNC(=O)c2ccc(C(C)(C)C)cc2)cc1 (stereo unspecified)
Result string: 24%

Query string: Supply Emax value. Item: CC(C)(C)c1ccc(C(=O)NCc2ccc(CC(=O)O)cc2)cc1
Result string: 19%

Query string: Supply Emax value. Item: COc1cc(C(=O)NCc2ccc(C(=O)O)cc2)ccc1C(C)(C)C
Result string: 23%

Query string: Supply Emax value. Item: CC(C)(C)c1ccc(C(=O)NCc2ccc(NC(=O)C(F)(F)F)cc2Cl)cc1
Result string: 21%

Query string: Supply Emax value. Item: CSc1ccc(CNC(=O)c2ccc(C(C)(C)C)cc2)cc1
Result string: 33%

Query string: Supply Emax value. Item: CC(C)(C)c1ccc(C(=O)NCc2ccc(C(=O)O)c(F)c2)cc1
Result string: 28%

Query string: Supply Emax value. Item: O=C(O)c1ccc(CNC(=O)C2CCCCC2)cc1
Result string: inactive

Now consider the entry below.
Query string: Supply Emax value. Item: CC(=O)Nc1ccc(CNC(=O)c2ccc(C(C)(C)C)cc2)cc1
Result string: 31%

====

assayTarget: UniProt Q96RI1
test: Transactivation of human FXR expressed in human HeLa cells co-expressing BSEP at 50 uM after 24 hrs by dual-glo luciferase reporter gene assay relative to GW4064
Assay type: cell-based
Active and inactive are the calls of the source. The calls are words filed in the database; no cut-off is given here.
valueType: Emax

The cases that follow already have their Emax on record.
Query string: Supply Emax value. Item: CC(C)(C)c1ccc(C(=O)NCc2ccc(-c3nnn[nH]3)cc2)cc1
Result string: 23%

Query string: Supply Emax value. Item: O=C(O)c1ccc(CNC(=O)c2ccc(C(F)(F)F)c(C(F)(F)F)c2)cc1
Result string: inactive

Query string: Supply Emax value. Item: CC(C)(C)c1ccc(C(=O)NCc2cccc(C(=O)O)c2)cc1
Result string: 14%

Query string: Supply Emax value. Item: CC(C)(C)c1ccc(NC(=O)Nc2ccc(C(=O)O)cc2)cc1
Result string: 14%

Query string: Supply Emax value. Item: Cc1ccc(C(=O)NCc2ccc(C(=O)O)cc2)c(C)c1
Result string: inactive

Query string: Supply Emax value. Item: CN(C)C(=O)c1ccc(CNC(=O)c2ccc(C(C)(C)C)cc2)cc1
Result string: 17%

New cases:
Query string: Supply Emax value. Item: CC(C)(C)c1ccc(C(=O)NCc2ccc(OCC(=O)O)cc2)cc1
Result string: 21%

Query string: Supply Emax value. Item: CC(C)(C)c1ccc(C(=O)NCc2ccc(S(N)(=O)=O)cc2)cc1
Result string: 16%

Query string: Supply Emax value. Item: Cc1cc(C(=O)O)ccc1CNC(=O)c1ccc(C(C)(C)C)cc1
Result string: inactive

Query string: Supply Emax value. Item: CC(C)(C)c1ccc(C(=O)NCc2ccc(C(=O)O)cc2F)cc1
Result string: 26%

Query string: Supply Emax value. Item: CC(C)(C)c1ccc(C(=O)NCc2ccc(C(N)=O)cc2)cc1
Result string: 27%

Query string: Supply Emax value. Item: CC(C)(C)c1ccc(C(=O)NCc2ccc(NS(C)(=O)=O)cc2Cl)cc1
Result string: 35%

Query string: Supply Emax value. Item: O=C(O)c1ccc(CNC(=O)c2ccc(Cl)c(Cl)c2)cc1
Result string: inactive

Query string: Supply Emax value. Item: O=C(O)c1ccc(CNC(=O)c2cccc(-c3ccccc3)c2)cc1
Result string: 14%

Query string: Supply Emax value. Item: CC(C)(C)c1ccc(C(=O)NCc2ccc(NS(C)(=O)=O)cc2)cc1
Result string: 22%

Query string: Supply Emax value. Item: CN(C)c1ccc(C(=O)NCc2ccc(C(=O)O)cc2)cc1
Result string: inactive

Query string: Supply Emax value. Item: CC(C)(C)c1ccc(C(=O)NCc2ccc(C#N)cc2)cc1
Result string: inactive

Query string: Supply Emax value. Item: COc1ccc(C(=O)NCc2ccc(C(=O)O)cc2)cc1OC
Result string: 18%

Query string: Supply Emax value. Item: CC(C)(C)c1ccc(C(=O)NCc2ccc(CCC(=O)O)cc2)cc1
Result string: 16%

Query string: Supply Emax value. Item: COc1ccc(CNC(=O)c2ccc(C(C)(C)C)cc2)cc1
Result string: 19%

Query string: Supply Emax value. Item: CC(C)(C)c1ccc(C(=O)NCc2ccc(C=O)cc2)cc1
Result string: 22%

====

assayTarget: Bile acid receptor (Homo sapiens)
Sequence (Q96RI1 whole entry): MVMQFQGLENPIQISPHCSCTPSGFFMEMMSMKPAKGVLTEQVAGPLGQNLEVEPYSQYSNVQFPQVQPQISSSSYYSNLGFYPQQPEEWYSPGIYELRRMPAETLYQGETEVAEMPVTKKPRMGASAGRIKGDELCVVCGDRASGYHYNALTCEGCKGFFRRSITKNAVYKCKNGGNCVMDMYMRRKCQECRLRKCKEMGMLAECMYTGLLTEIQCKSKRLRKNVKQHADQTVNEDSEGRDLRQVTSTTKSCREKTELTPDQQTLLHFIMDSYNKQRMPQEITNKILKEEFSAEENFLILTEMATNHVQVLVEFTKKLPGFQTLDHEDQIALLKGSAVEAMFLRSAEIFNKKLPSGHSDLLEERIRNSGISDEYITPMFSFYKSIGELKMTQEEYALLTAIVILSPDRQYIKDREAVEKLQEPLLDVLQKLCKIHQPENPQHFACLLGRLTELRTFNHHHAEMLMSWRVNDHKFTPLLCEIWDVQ
test: Transactivation of human FXR expressed in human HeLa cells co-expressing BSEP after 24 hrs by dual-glo luciferase reporter gene assay
valueType: log10(EC50) (log10 of the value in nM)
Give log10 of EC50, with EC50 taken in nM.

Query string: Supply log10(EC50) value. Item: CC(C)(C)c1ccc(C(=O)NCc2ccc(C(=O)O)c(Cl)c2)cc1
Result string: 0.94

Query string: Supply log10(EC50) value. Item: CSc1ccc(CNC(=O)c2ccc(C(C)(C)C)cc2)cc1
Result string: 2.00

Query string: Supply log10(EC50) value. Item: COc1cc(C(=O)NCc2ccc(C(=O)O)cc2)ccc1C(C)(C)C
Result string: 3.08

Query string: Supply log10(EC50) value. Item: C[S+]([O-])c1ccc(CNC(=O)c2ccc(C(C)(C)C)cc2)cc1 (stereo unspecified)
Result string: 3.11

Query string: Supply log10(EC50) value. Item: COc1ccc(CNC(=O)c2ccc(C(C)(C)C)cc2)cc1
Result string: 2.18

Query string: Supply log10(EC50) value. Item: CN(C)C(=O)c1ccc(CNC(=O)c2ccc(C(C)(C)C)cc2)cc1
Result string: 2.23

====

test: Half life in C57BL/6JRj mouse at 10 mg/kg, po measured up to 480 mins post dose by LC-MS analysis
Assay type: ADME, organism-based
measurementContext: in vivo
valueType: half-life (min)
Report only the number, with the unit min understood.

Query string: Supply half-life value. Item: CC(C)(C)c1ccc(C(=O)NCc2ccc(NS(C)(=O)=O)cc2Cl)cc1
Result string: 42

====

Give pEC50 for every item shown.
assayTarget: Bile acid receptor (Homo sapiens, UniProt Q96RI1)
test: Transactivation of human FXR expressed in human HeLa cells co-expressing BSEP after 24 hrs by dual-glo luciferase reporter gene assay
Format: cell-based
Bear in mind: pEC50 is minus log10 of a mol/L concentration; give just that figure.

Query string: # lookup: Bile acid receptor (Homo sapiens, UniProt Q96RI1) pEC50, key = CC(C)(C)c1ccc(C(=O)NCc2ccc(C(=O)O)c(F)c2)cc1
Result string: 6.85

Query string: # lookup: Bile acid receptor (Homo sapiens, UniProt Q96RI1) pEC50, key = CC(C)(C)c1ccc(C(=O)NCc2ccc(C(=O)O)cc2Cl)cc1
Result string: 5.12

Query string: # lookup: Bile acid receptor (Homo sapiens, UniProt Q96RI1) pEC50, key = O=C(O)c1ccc(CNC(=O)c2ccc3ccccc3c2)cc1
Result string: 5.87

Query string: # lookup: Bile acid receptor (Homo sapiens, UniProt Q96RI1) pEC50, key = CC(C)(C)c1ccc(C(=O)NCc2ccc(S(C)(=O)=O)cc2)cc1
Result string: 5.42

Query string: # lookup: Bile acid receptor (Homo sapiens, UniProt Q96RI1) pEC50, key = CC(=O)c1ccc(CNC(=O)c2ccc(C(C)(C)C)cc2)cc1
Result string: 7.00

Query string: # lookup: Bile acid receptor (Homo sapiens, UniProt Q96RI1) pEC50, key = CC(C)Oc1ccc(CNC(=O)c2ccc(C(C)(C)C)cc2)cc1
Result string: 6.77

Query string: # lookup: Bile acid receptor (Homo sapiens, UniProt Q96RI1) pEC50, key = CC(C)(C)c1ccc(C(=O)NCc2ccc(C(=O)O)cc2F)cc1
Result string: 8.11

Query string: # lookup: Bile acid receptor (Homo sapiens, UniProt Q96RI1) pEC50, key = CC(C)(C)c1ccc(C(=O)NCc2ccc(NC(=O)C(F)(F)F)cc2Cl)cc1
Result string: 7.85

Query string: # lookup: Bile acid receptor (Homo sapiens, UniProt Q96RI1) pEC50, key = Cc1ccc(C(=O)NCc2ccc(C(=O)O)cc2)cc1C
Result string: 6.49

Query string: # lookup: Bile acid receptor (Homo sapiens, UniProt Q96RI1) pEC50, key = CCOc1ccc(CNC(=O)c2ccc(C(C)(C)C)cc2)cc1
Result string: 6.80

Query string: # lookup: Bile acid receptor (Homo sapiens, UniProt Q96RI1) pEC50, key = CC(NC(=O)c1ccc(C(C)(C)C)cc1)c1ccc(C(=O)O)cc1 (stereo not drawn)
Result string: 7.12

Query string: # lookup: Bile acid receptor (Homo sapiens, UniProt Q96RI1) pEC50, key = CC(C)(C)c1ccc(NC(=O)Nc2ccc(C(=O)O)cc2)cc1
Result string: 5.42

Query string: # lookup: Bile acid receptor (Homo sapiens, UniProt Q96RI1) pEC50, key = CC(C)(C)c1ccc(C(=O)NCc2ccc(NS(C)(=O)=O)cc2)cc1
Result string: 7.36

Query string: # lookup: Bile acid receptor (Homo sapiens, UniProt Q96RI1) pEC50, key = CC(C)(C)c1ccc(C(=O)NCc2ccc(CC(=O)O)cc2)cc1
Result string: 5.19

Query string: # lookup: Bile acid receptor (Homo sapiens, UniProt Q96RI1) pEC50, key = CC(C)(C)c1ccc(C(=O)NCc2ccc(S(N)(=O)=O)cc2)cc1
Result string: 5.85

Query string: # lookup: Bile acid receptor (Homo sapiens, UniProt Q96RI1) pEC50, key = Cc1cc(CNC(=O)c2ccc(C(C)(C)C)cc2)ccc1C(=O)O
Result string: 6.80

Query string: # lookup: Bile acid receptor (Homo sapiens, UniProt Q96RI1) pEC50, key = CC(=O)Nc1ccc(CNC(=O)c2ccc(C(C)(C)C)cc2)cc1
Result string: 5.54

Query string: # lookup: Bile acid receptor (Homo sapiens, UniProt Q96RI1) pEC50, key = CC(C)(C)c1ccc(C(=O)NCc2ccc(SC(F)(F)F)cc2)cc1
Result string: 9.40

Query string: # lookup: Bile acid receptor (Homo sapiens, UniProt Q96RI1) pEC50, key = COc1ccc(C(=O)NCc2ccc(C(=O)O)cc2)cc1OC
Result string: 6.43

Query string: # lookup: Bile acid receptor (Homo sapiens, UniProt Q96RI1) pEC50, key = CC(C)(C)c1ccc(C(=O)NCc2ccc(OCC(=O)O)cc2)cc1
Result string: 6.14

Query string: # lookup: Bile acid receptor (Homo sapiens, UniProt Q96RI1) pEC50, key = CC(C)(C)c1ccc(C(=O)NCc2ccc(C(=O)O)cc2)cc1
Result string: 6.43

Query string: # lookup: Bile acid receptor (Homo sapiens, UniProt Q96RI1) pEC50, key = CC(C)(C)c1ccc(C(=O)NCc2ccc(S(N)(=O)=O)cc2F)cc1
Result string: 6.01

Query string: # lookup: Bile acid receptor (Homo sapiens, UniProt Q96RI1) pEC50, key = CC(C)(C)c1ccc(C(=O)NCc2ccc(C(N)=O)cc2)cc1
Result string: 5.42
